Origin of values: patent US6858210B1

# Tested on: affinity purified β2GPI-dependent antiphospholipid antibody
# PROTOCOL_SUMMARY: Competitive inhibition ELISA: recombinant β2GPI proteins compete for antibody binding to coated full length recombinant β2GPI
# Design: species or system human
# MEASUREMENT_CONTEXT: Ab 7104
ASSAY_READOUT: Max (maximum inhibition observed at concentrations tested) (%)
Write down the numeric answer in % and omit the unit.

Look over these answered cases.
1234-: recombinant β2GPI deletion mutant with domains 1, 2, 3, 4 (protein) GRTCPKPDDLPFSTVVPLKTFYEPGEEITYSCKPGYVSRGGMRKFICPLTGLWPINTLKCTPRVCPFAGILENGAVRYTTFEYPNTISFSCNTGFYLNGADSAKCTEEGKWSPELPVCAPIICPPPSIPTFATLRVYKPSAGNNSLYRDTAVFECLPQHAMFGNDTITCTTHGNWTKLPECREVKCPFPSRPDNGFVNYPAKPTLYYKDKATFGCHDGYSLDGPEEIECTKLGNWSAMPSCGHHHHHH | 90
123--: recombinant β2GPI deletion mutant with domains 1, 2, 3 (protein) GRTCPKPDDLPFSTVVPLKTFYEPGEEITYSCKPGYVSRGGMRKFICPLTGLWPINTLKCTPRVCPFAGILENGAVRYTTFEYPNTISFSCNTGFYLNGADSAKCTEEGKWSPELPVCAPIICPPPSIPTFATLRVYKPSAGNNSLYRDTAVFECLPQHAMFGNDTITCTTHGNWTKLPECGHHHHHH | 98
12---: recombinant β2GPI deletion mutant with domains 1 and 2 (protein) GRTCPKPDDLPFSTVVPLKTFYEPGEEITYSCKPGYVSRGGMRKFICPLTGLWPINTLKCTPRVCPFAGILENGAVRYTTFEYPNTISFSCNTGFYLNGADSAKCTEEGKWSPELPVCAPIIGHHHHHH | 90
recombinant β2GPI domain 5 with GlyHis6 (----5) (protein) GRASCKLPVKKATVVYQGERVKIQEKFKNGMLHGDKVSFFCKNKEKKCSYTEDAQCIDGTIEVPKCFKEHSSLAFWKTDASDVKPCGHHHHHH | 0
-2345: recombinant β2GPI deletion mutant with domains 2-5 (protein) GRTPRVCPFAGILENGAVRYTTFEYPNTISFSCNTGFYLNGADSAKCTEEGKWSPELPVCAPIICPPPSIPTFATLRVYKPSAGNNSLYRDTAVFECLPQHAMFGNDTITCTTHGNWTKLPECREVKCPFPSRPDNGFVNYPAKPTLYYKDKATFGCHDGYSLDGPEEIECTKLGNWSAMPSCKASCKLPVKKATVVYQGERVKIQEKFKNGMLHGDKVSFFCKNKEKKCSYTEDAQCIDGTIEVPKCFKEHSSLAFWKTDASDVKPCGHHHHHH | 10

// switching to the query molecule
Per the record, ---45: recombinant β2GPI deletion mutant with domains 4, 5 (protein) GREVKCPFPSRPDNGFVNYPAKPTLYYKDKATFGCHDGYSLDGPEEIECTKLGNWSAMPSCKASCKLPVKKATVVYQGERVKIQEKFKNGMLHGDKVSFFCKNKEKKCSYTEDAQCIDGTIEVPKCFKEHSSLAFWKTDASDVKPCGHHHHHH has Max (maximum inhibition observed at concentrations tested) of 5
